- Tested on: SF-268 CNS
- assay_protocol: NCI-60 one-dose screen, 48 h
- test_context: 10 µM unless noted
The panel holds about 83,000 compounds, 20% with a hit somewhere; the sample as a whole holds those more often. Active and inactive are the calls of the source. The calls were made as follows: active = growth percent below 10; inactive = the rest.
Pick from yes (active), no (inactive) when you respond.

Exam item: Could you please tell me the result logged for O=C(Nc1ccccc1)c1sc(-c2ccccc2)cc1O in this assay?
Marked response: no

Exam item: Could you please tell me the result logged for N#Cc1nc2c(S(=O)(=O)c3ccccc3)c(N)n(Cc3cccnc3)c2nc1C#N in this assay?
Marked response: no

Exam item: Could you please tell me the result logged for COc1cc2nc(Nc3cccc(F)c3)nc(Nc3cc(C)[nH]n3)c2cc1OC in this assay?
Marked response: yes

Exam item: Could you please tell me the result logged for CO[C@H](C(=O)[C@@H](O)[C@@H](C)O)[C@@H]1Cc2cc3cc(O[C@H]4C[C@@H](O[C@H]5C[C@@H](O)[C@H](O)C(C)O5)[C@H](O)C(C)O4)c(C)c(O)c3c(O)c2C(=O)[C@H]1O[C@H]1C[C@@H](O[C@H]2C[C@@H](O[C@H]3C[C@@H](OC)[C@H](O)C(C)O3)[C@@H](O)C(C)O2)C(O)(O)C(C)O1 (stereo not given in full) in this assay?
Marked response: no

Exam item: Could you please tell me the result logged for C[C@@H]1CC[C@@]2(OC1)O[C@H]1C[C@H]3[C@@H]4CC=C5C[C@@H](O[C@@H]6O[C@H](CO)[C@@H](O[C@@H]7O[C@@H](CO)[C@H](O)[C@H]7O)[C@H](O)[C@H]6O[C@@H]6O[C@@H](C)[C@H](O)[C@@H](O)[C@H]6O)CC[C@]5(C)[C@H]4CC[C@]3(C)[C@H]1[C@@H]2C in this assay?
Marked response: yes
